Assay: chemical genetic growth profiling, strain panel (AID 1159580);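 also: tested at 20 µM; growth read once vehicle control cultures reached saturation at 30 °C; 1 = growth at the plate median or of vehicle wells; lower values mean less growth of the strain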
Details: S. cerevisiae deletion strains, growth OD, locus YDR363W, strain ESC2, active compounds read low
The whole screen tested about 5,500 compounds, of which about 2,000 (36%) were called active. Roughly 18% stayed inconclusive and do not appear here. The list shows a part of the results.
# normalized growth annotations

# count of solved cases: 3
molecule=CN1CCN(CC(=O)N2c3ccccc3C(=O)Nc3cccnc32)CC1 result="1.02 (inactive)"
molecule="CC(C)C1C2CCC(C2)C1N (centres undefined)" result="1.02 (inactive)"
molecule="CCc1cccc2c3c([nH]c12)C(CC)(CC(=O)O)OCC3 (centres undefined)" result="1.05 (inactive)"

Which normalized growth reading was recorded for the molecule COc1ccc(CCN(C)CCCC(C#N)(c2cc(OC)c(OC)c(OC)c2)C(C)C)cc1OC (centres undefined) ?
0.97 (inactive)

Which normalized growth reading was recorded for the molecule C#C[C@]1(O)CC[C@H]2[C@@H]3CCC4=Cc5oncc5CC4(C)[C@H]3CCC21C (some centres undefined) ?
1.02 (inactive)

Which normalized growth reading was recorded for the molecule `CC(=O)[C@@]1(O)CC[C@H]2[C@@H]3CCC4=CC(=O)CC[C@]4(C)[C@H]3CC[C@@]21C` ?
0.996 (inactive)

Which normalized growth reading was recorded for the molecule `C[C@]12CCC(=O)C=C1CC[C@@H]1[C@@H]2CC[C@@]2(C)[C@H]1CC[C@]2(O)C(=O)CO` ?
0.948 (inactive)

Which normalized growth reading was recorded for the molecule NC(C(=O)O)c1cc(=O)[nH]o1 (centres undefined) ?
1.04 (inactive)

Which normalized growth reading was recorded for the molecule CN1C(=O)CCS(=O)(=O)C1c1ccc(Cl)cc1 (centres undefined) ?
1.03 (inactive)

Which normalized growth reading was recorded for the molecule Cn1cc(C(F)(F)F)nc1-c1ccc(OCC(O)CNCCOc2ccc(O)c(C(N)=O)c2)cc1 (centres undefined) ?
1.01 (inactive)

Which normalized growth reading was recorded for the molecule `CN(C)C(=O)N=NC(=O)N(C)C` ?
1.04 (inactive)

Which normalized growth reading was recorded for the molecule `CCc1c(C(=O)OC)ncc2[nH]c3cc(OC)c(OC)cc3c12` ?
1 (inactive)

###

Experiment: chemical genetic growth profiling, strain panel (AID 1159580)
Details: S. cerevisiae deletion strains, growth OD, locus YLR320W, strain mms22
Hit rate of the full screen: of about 5,500 compounds, about 2,000 (36%) were called active. About 18% were inconclusive and are not listed. Rule as the data show it: active = normalized growth mostly below about 0.91 (no sharp cut-off); inconclusive = no clear call, values can overlap the other calls; inactive = mostly above about 0.92. This is one part of the list.
Mark one answer only. Choices: T (active), F (inactive)

compound=COc1ccc2c(=O)ccoc2c1 assignedclass=F
compound=CN1CCN(CCC=C2c3ccccc3Sc3ccc(S(=O)(=O)N(C)C)cc32)CC1 assignedclass=F
compound=c1ccc2c(Cc3c[nH]c4ccccc34)c[nH]c2c1 assignedclass=T
compound=CN(C)CCc1c[nH]c2ccc(CS(=O)(=O)N3CCCC3)cc12 assignedclass=F
compound=COc1cc(-c2coc3cc(O[C@@H]4O[C@H](CO)[C@@H](O)[C@H](O)[C@H]4O)c(OC)c(O)c3c2=O)cc(O)c1OC assignedclass=F

Would you mind telling me which call this test gave O=c1[nH]cnc2c1ncn2C1O[C@H](CO)[C@@H](O)[C@H]1O (stereo not given in full) ?
F

Would you mind telling me which call this test gave OC(c1cc(C(F)(F)F)nc2c(C(F)(F)F)cccc12)C1CCCCN1 (stereo not given) ?
F

Would you mind telling me which call this test gave C[C@]12CCC(=O)C=C1CCC1C2[C@@H](O)C[C@@]2(C)C1CC[C@]2(O)C(=O)COC(=O)CCC(=O)O (stereo not given in full) ?
F

Would you mind telling me which call this test gave `NCCc1cc(O)c(O)cc1O` ?
F

Would you mind telling me which call this test gave `NC(=O)NO` ?
F

Would you mind telling me which call this test gave `O=C(O)c1cc(=O)c2cccc(O)c2[nH]1` ?
F

Would you mind telling me which call this test gave `CC(=O)NO` ?
F

Would you mind telling me which call this test gave `COc1c2occc2c(OC)c2c(=O)cc(C)oc12` ?
F

###

Test: chemical genetic growth profiling, strain panel (AID 1159580);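 also: tested at 20 µM; growth read once vehicle control cultures reached saturation at 30 °C; 1 = growth at the plate median or of vehicle wells; lower values mean less growth of the strain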
Settings: S. cerevisiae deletion strains, growth OD, locus YML016C, strain PPZ1, active compounds read low
The campaign covered roughly 5,500 compounds. About 2,000 (36%) were called active. Roughly 18% stayed inconclusive and do not appear here. The list shows a part of the results.
parameter: normalized growth
Form: value (number only, do not type unit).

# count of solved cases: 5
molecule=COc1ccc([C@H]2COc3c(ccc(O)c3OC)C2)c(OC)c1O numericvalue=0.995
molecule="CC(=O)Oc1cc2c(c(C)c1OC(C)=O)CC1OC13C2(C)CCC1(C)C2CC(C)(C(=O)O)CCC2(C)CCC13C (stereo unspecified)" numericvalue=1.01
molecule=COc1cc2cc3c4cc(OC)c(OC)cc4cc[n+]3c(C)c2cc1OC numericvalue=1.02
molecule="COc1c2c(cc3c1OCO3)C13C=C[C@H](OC)CC1N(C2)CC3O (stereo partly specified)" numericvalue=0.999
molecule=COc1cccc(O)c1O numericvalue=1.03

Which normalized growth reading was recorded for the molecule `CC(=O)Oc1cccc(C(=O)O)c1OC(C)=O` ?
1.01

Which normalized growth reading was recorded for the molecule CCC1C(=O)OCC1Cc1cncn1C (stereo unspecified) ?
1.01

Which normalized growth reading was recorded for the molecule CC(=O)[C@@]1(O)CCC2C3CCC4=CC(=O)CC[C@]4(C)C3CC[C@@]21C (stereo partly specified) ?
0.986

Which normalized growth reading was recorded for the molecule `CC[C@@H](CO)NC(=O)[C@@H]1C=C2c3cccc4[nH]cc(c34)C[C@H]2N(C)C1` ?
0.978

Which normalized growth reading was recorded for the molecule `COc1ccc2c(c1OC)OC[C@@H](c1ccc(OC)c(OC)c1OC)C2` ?
1.02

Which normalized growth reading was recorded for the molecule `CC1=C(O)C(=O)C=C2C1=CC=C1[C@@]2(C)CC[C@@]2(C)[C@@H]3C[C@](C)(C(=O)O)CC[C@]3(C)CC[C@]12C` ?
0.547

Which normalized growth reading was recorded for the molecule CC(N)C(O)c1ccc(O)c(O)c1 (stereo unspecified) ?
0.991

Which normalized growth reading was recorded for the molecule CC(=O)OCC(=O)[C@@]12OC3(CCCC3)O[C@@H]1CC1C3CCC4=CC(=O)C=C[C@]4(C)[C@@]3(F)[C@@H](O)C[C@@]12C (stereo partly specified) ?
1.02

Which normalized growth reading was recorded for the molecule COc1cc2c(cc1OC)[C@@]13CCN4CC5=CCOC6CC(=O)N2C1[C@H]6[C@H]5C[C@H]43 (stereo partly specified) ?
1.01

Which normalized growth reading was recorded for the molecule CO[C@H]1C[C@H](O[C@H]2[C@H](C)[C@@H](OC3O[C@H](C)C[C@H](N(C)C)[C@H]3OC(C)=O)[C@@H](C)C[C@]3(CO3)C(=O)[C@H](C)[C@@H](OC(C)=O)[C@@H](C)[C@@H](C)OC(=O)[C@@H]2C)O[C@@H](C)[C@@H]1OC(C)=O (stereo partly specified) ?
1.01

Which normalized growth reading was recorded for the molecule `CC[C@H]1OC(=O)[C@H](C)[C@@H](O[C@H]2C[C@@](C)(OC)[C@@H](O)[C@H](C)O2)[C@H](C)[C@@H](O[C@@H]2O[C@H](C)C[C@H](N(C)C)[C@H]2O)[C@](C)(O)C[C@@H](C)[C@@H]2N[C@@H](COCCOC)O[C@H]([C@H]2C)[C@]1(C)O` ?
1.01

###

Test: chemical genetic growth profiling, strain panel (AID 1159580);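 also: tested at 20 µM; growth read once vehicle control cultures reached saturation at 30 °C; 1 = growth at the plate median or of vehicle wells; lower values mean less growth of the strain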
Settings: S. cerevisiae deletion strains, growth OD, locus YEL061C, strain CIN8, active compounds read low
The whole screen tested about 5,500 compounds, of which about 2,000 (36%) were called active. Another 18% or so got no clear call; they are omitted. The list shows a part of the results.
# normalized growth annotations
Form: value (number only, do not type unit).

# count of solved cases: 2
compound=COc1c2ccoc2cc2oc(C)cc(=O)c12 numericvalue=0.975
compound="CNS(=O)(=O)c1cc(Br)ccc1S(=O)c1ccccc1C(=O)O (stereo not drawn)" numericvalue=1.02

Which normalized growth reading was recorded for the compound `COc1ccc2c(=O)ccoc2c1` ?
1.01

###

Assay: chemical genetic growth profiling, strain panel (AID 1159580);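 also: tested at 20 µM; growth read once vehicle control cultures reached saturation at 30 °C; 1 = growth at the plate median or of vehicle wells; lower values mean less growth of the strain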
Details: S. cerevisiae deletion strains, growth OD, locus YDR159W, strain sac3, active compounds read low
Screen size: about 5,500 compounds; about 2,000 (36%) were called active. Roughly 18% stayed inconclusive and do not appear here. This is one part of the list.
parameter: normalized growth
Form: value (number only, do not type unit).

molecule="C1CCC(C(CC2CCCCN2)C2CCCCC2)CC1 (configuration not stated)" numericvalue=0.965

Which normalized growth reading was recorded for the molecule COc1cc2c(cc1OC)[C@@]13CCN4CC5=CCOC6CC(=O)N2C1[C@H]6[C@H]5C[C@H]43 (some centres not stated) ?
0.977

Which normalized growth reading was recorded for the molecule `Cc1c(NC(=O)c2cccnc2)c(=O)n(-c2ccccc2)n1C` ?
1

Which normalized growth reading was recorded for the molecule `O=C(O)c1cc(=O)c2cccc(O)c2[nH]1` ?
0.981

Which normalized growth reading was recorded for the molecule `NCCc1cc(O)c(O)cc1O` ?
1.02

Which normalized growth reading was recorded for the molecule `CC(=O)[O][Hg][c]1ccccc1` ?
0.0919

Which normalized growth reading was recorded for the molecule `CNS(=O)(=O)c1ccc(NC(=O)c2ccccc2C(=O)O)cc1` ?
0.982

Which normalized growth reading was recorded for the molecule `c1ccc([C@H]2CN3CCSC3=N2)cc1` ?
0.944

Which normalized growth reading was recorded for the molecule CCCCCCCCCCCCCCCCCCOCC(O)CO (configuration not stated) ?
0.952

Which normalized growth reading was recorded for the molecule OC(c1cc(C(F)(F)F)nc2c(C(F)(F)F)cccc12)C1CCCCN1 (configuration not stated) ?
0.999

Which normalized growth reading was recorded for the molecule `O=C(CCc1ccc(O)cc1)c1c(O)cc(O)cc1O[C@@H]1O[C@H](CO)[C@@H](O)[C@H](O)[C@H]1O` ?
1.03

Which normalized growth reading was recorded for the molecule CC(=O)CC1CCCCN1 (configuration not stated) ?
1.01

Sourced from PubChem BioAssay AID1159580
